Target: T1, AFP158/HLA-A*02:01 complex (human)
T1 construct: flowed over the chip in SPR; also called AFP158 pro
Assay: SPR, KD ratio to AS170036 VL1VH1;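 further: crude scFv captured on a sensor chip, peptide–HLA complex passed over at several concentrations, association then buffer dissociation, KD derived from on- and off-rates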
metric.name: Affinity increase (fold)
Number in fold, nothing else.

Name the recorded Affinity increase for LH98A (scFv, AS170036 VL1VH1 scFv mutein; also called AS170036 VL1VH1-VLH98A) scFv: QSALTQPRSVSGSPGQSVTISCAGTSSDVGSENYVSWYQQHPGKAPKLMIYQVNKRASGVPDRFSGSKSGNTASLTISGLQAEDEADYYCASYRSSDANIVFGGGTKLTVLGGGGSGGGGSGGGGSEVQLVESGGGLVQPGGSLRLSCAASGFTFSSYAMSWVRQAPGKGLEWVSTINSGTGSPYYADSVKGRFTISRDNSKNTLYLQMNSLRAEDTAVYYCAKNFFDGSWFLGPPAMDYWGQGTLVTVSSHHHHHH .
2.3
